Target: UniProtKB P18757
Assay: rCSE inhibition, H2S detection by gas chromatography
Format: biochemical
Parameters: His-tag (C); made in house; host or cells: E. coli BL21
Settings: 1.5 mM cysteine, 100 μM PLP, mean ± S.E., read-out: IC50, inhibition of H2S production by rCSE
READOUT TYPE: pIC50
Give bare numbers, as −log10 of the molar value.

Record request: pIC50 value, item NNC(=O)C(N)=O [Compound 1, oxamic hydrazide]
4.64

---

So I've got IC50 readings for UniProtKB P18757, take a look.
Give bare numbers, in µM.

| COMPOUND | READING UNIT | IC50 |
| --- | --- | --- |
| NNC(=O)C(N)=O [Compound 1, oxamic hydrazide] | µM | 13 |

Proceeding to the next compound to report its IC50.
Record request: IC50 value, item CNC(=O)C(=O)NN
0.43

Values from paper PMC10542788
